# Experimental Protocol: Stability in human plasma
# Type: in vitro ADME
# Measurement Context: pH 7.8; 2 μM peptidomimetic, pooled human plasma, 37° C.; read-out: half-life (t1/2) when incubated with human plasma
Non-standard residues stand in square brackets, D forms with d. Residues, ends and D or L forms follow the SMILES beside them. ξ: configuration not given here. ξNMeBip(2'-Et,4'-OMe) = CCc1cc(OC)ccc1-c1ccc(CC(NC)C(=O)O)cc1; Leu(5,5,5,5',5',5'-F6) = N[C@@H](CC(C(F)(F)F)C(F)(F)F)C(=O)O; ξBip(2'-Et-4'-OMe) = CCc1cc(OC)ccc1-c1ccc(CC(N)C(=O)O)cc1; ξNMeNva(5-(2-F-Ph)) = CNC(CCCc1ccccc1F)C(=O)O; ξNva(5-(3-Cl-Ph)) = NC(CCCc1cccc(Cl)c1)C(=O)O; ξαMePhe(2-F) = CC(N)(Cc1ccccc1F)C(=O)O; NMeD = CN[C@@H](CC(=O)O)C(=O)O; aThr = C[C@H](O)[C@H](N)C(=O)O; Ac5c = NC1(C(=O)O)CCCC1; Aib = CC(C)(N)C(=O)O
Measurement Kind: half-life at 2 μM

**Q:** I would be grateful if you could share the reported half-life at 2 μM for CCc1cc(OC)ccc1-c1ccc(CC(C(=O)N(C)C(CCCc2ccccc2F)C(N)=O)N(C)C(=O)[C@H](CC(=O)O)N(C)C(=O)[C@H](CO)NC(=O)[C@@H](NC(=O)C(C)(Cc2ccccc2F)NC(=O)[C@@H](NC(=O)CNC(=O)[C@H](CC(C(F)(F)F)C(F)(F)F)NC(=O)C(C)(C)NC(=O)[C@@H](N)Cc2c[nH]cn2)[C@H](C)O)[C@H](C)O)cc1 (stereo partly shown) [compound 221] (H-H[Aib][Leu(5,5,5,5',5',5'-F6)]G[aThr][ξαMePhe(2-F)][aThr]S[NMeD][ξNMeBip(2'-Et,4'-OMe)][ξNMeNva(5-(2-F-Ph))]-NH2) .
**A:** > 24 h

**Q:** Consider the compound shown here: CCc1cc(OC)ccc1-c1ccc(CC(NC(=O)[C@H](CC(=O)O)NC(=O)[C@H](CO)NC(=O)[C@@H](NC(=O)[C@H](Cc2ccccc2)NC(=O)[C@@H](NC(=O)CNC(=O)[C@H](CCC(N)=O)NC(=O)[C@H](CO)NC(=O)[C@@H](N)Cc2c[nH]cn2)[C@@H](C)O)[C@@H](C)O)C(=O)NC(CCCc2cccc(Cl)c2)C(N)=O)cc1 (stereo partly shown) [compound 7] (H-HSQGTFTSD[ξBip(2'-Et-4'-OMe)][ξNva(5-(3-Cl-Ph))]-NH2) What is its recorded half-life at 2 μM?
**A:** 8 h

**Q:** Fill in the blank: the reported half-life at 2 μM of CCc1cc(OC)ccc1-c1ccc(CC(NC(=O)[C@H](CC(=O)O)NC(=O)[C@H](CO)NC(=O)[C@@H](NC(=O)C(C)(Cc2ccccc2F)NC(=O)[C@@H](NC(=O)CNC(=O)C(CCC#N)NC(=O)C(C)(C)NC(=O)[C@H](Cc2c[nH]cn2)NC(C)=O)[C@@H](C)O)[C@@H](C)O)C(=O)NC(CCCc2ccccc2)C(N)=O)cc1 (single isomer, unassigned) [compound 205] is ____.
**A:** > 24 h

**Q:** Could you tell me which half-life at 2 μM is on file for CCc1cc(OC)ccc1-c1ccc(CC(CNC(CCCc2ccccc2)C(N)=O)NC[C@H](CC(=O)O)NC(=O)[C@H](CO)NC(=O)[C@@H](NC(=O)C(C)(Cc2ccccc2F)NC(=O)[C@@H](NC(=O)CNC(=O)C(CCC#N)NC(=O)C(C)(C)NC(=O)[C@@H](N)Cc2c[nH]cn2)[C@H](C)O)[C@H](C)O)cc1 (single isomer, unassigned) [compound 202] ?
**A:** > 24 h

**Q:** Look up half-life at 2 μM: CCc1cc(OC)ccc1-c1ccc(CC(CNC(CCCc2ccccc2)C(N)=O)NC[C@H](CC(=O)O)NC(=O)[C@H](CO)NC(=O)[C@@H](NC(=O)C(C)(Cc2ccccc2F)NC(=O)[C@@H](NC(=O)CNC(=O)[C@H](CCC(N)=O)NC(=O)C(C)(C)NC(=O)[C@H](Cc2c[nH]cn2)NC(=O)OC)[C@H](C)O)[C@H](C)O)cc1 (single isomer, unassigned) [compound 198]
**A:** > 24 h

**Q:** Any idea what its half-life at 2 μM is? The compound is CCc1cc(OC)ccc1-c1ccc(CC(NC(=O)[C@H](CC(=O)O)NC(=O)[C@H](CO)NC(=O)[C@@H](NC(=O)C(C)(Cc2ccccc2F)NC(=O)[C@@H](NC(=O)CNC(=O)C(CCC#N)NC(=O)C(C)(C)NC(=O)[C@@H](N)Cc2c[nH]cn2)[C@H](C)O)[C@H](C)O)C(=S)NC(CCCc2ccccc2)C(N)=O)cc1 (single isomer, unassigned) [compound 166]
**A:** 8 h

**Q:** Recorded half-life at 2 μM for CCc1cc(OC)ccc1-c1ccc(CC(C(=O)N(C)C(CCCc2ccccc2F)C(N)=O)N(C)C(=O)[C@H](CC(=O)O)NC(=O)[C@H](CO)NC(=O)[C@@H](NC(=O)C(C)(Cc2ccccc2F)NC(=O)[C@@H](NC(=O)CNC(=O)C(CCC#N)NC(=O)C(C)(C)NC(=O)[C@@H](N)Cc2c[nH]cn2)[C@H](C)O)[C@H](C)O)cc1 (single isomer, unassigned) [compound 144] , please?
**A:** 8 h

**Q:** Please give the measured half-life at 2 μM for this compound: CCc1cc(OC)ccc1-c1ccc(CC(NC(=O)[C@H](CC(=O)O)NC(=O)[C@H](CO)NC(=O)[C@@H](NC(=O)[C@H](Cc2ccccc2)NC(=O)[C@@H](NC(=O)CNC(=O)[C@H](CCC(N)=O)NC(=O)C2(NC(=O)[C@@H](N)Cc3c[nH]cn3)CCCC2)[C@@H](C)O)[C@@H](C)O)C(=O)NC(CCCc2cccc(Cl)c2)C(N)=O)cc1 (stereo partly shown) [compound 27] (H-H[Ac5c]QGTFTSD[ξBip(2'-Et-4'-OMe)][ξNva(5-(3-Cl-Ph))]-NH2)
**A:** > 24 h

**Q:** Please look up its half-life at 2 μM: CCc1cc(OC)ccc1-c1ccc(CC(CNC(CCCc2ccccc2)C(N)=O)NC[C@H](CC(=O)O)NC(=O)[C@H](CO)NC(=O)[C@@H](NC(=O)C(C)(Cc2ccccc2F)NC(=O)[C@@H](NC(=O)CNC(=O)[C@H](CCC(N)=O)NC(=O)C(C)(C)NC(=O)[C@@H](N)Cc2c[nH]cn2)[C@H](C)O)[C@H](C)O)cc1 (single isomer, unassigned) [compound 201]
**A:** > 24 h

**Q:** Quick one: half-life at 2 μM for CCc1cc(OC)ccc1-c1ccc(CC(NC(=O)[C@H](CC(=O)O)NC(=O)[C@H](CO)NC(=O)[C@@H](NC(=O)C(C)(Cc2ccccc2F)NC(=O)[C@@H](NC(=O)CNC(=O)C(CCC#N)NC(=O)C(C)(C)NC(=O)[C@@H](N)Cc2c[nH]cn2)[C@H](C)O)[C@H](C)O)C(=O)N(C)C(CCCc2ccccc2F)C(N)=O)cc1 (single isomer, unassigned) [compound 132] ?
**A:** 8 h
